Entries and their measured pIC50 follow.
- Measurement Target: human β-Klotho extracellular domain (aa1–992) fused with a 6 × His tag at the C-terminus (human, UniProt Q86Z14 1-992, biotin (EZ-Link Sulfo-NHS-LC-Biotin) in the bio-layer interferometry)
- Sequence (Q86Z14 53-992): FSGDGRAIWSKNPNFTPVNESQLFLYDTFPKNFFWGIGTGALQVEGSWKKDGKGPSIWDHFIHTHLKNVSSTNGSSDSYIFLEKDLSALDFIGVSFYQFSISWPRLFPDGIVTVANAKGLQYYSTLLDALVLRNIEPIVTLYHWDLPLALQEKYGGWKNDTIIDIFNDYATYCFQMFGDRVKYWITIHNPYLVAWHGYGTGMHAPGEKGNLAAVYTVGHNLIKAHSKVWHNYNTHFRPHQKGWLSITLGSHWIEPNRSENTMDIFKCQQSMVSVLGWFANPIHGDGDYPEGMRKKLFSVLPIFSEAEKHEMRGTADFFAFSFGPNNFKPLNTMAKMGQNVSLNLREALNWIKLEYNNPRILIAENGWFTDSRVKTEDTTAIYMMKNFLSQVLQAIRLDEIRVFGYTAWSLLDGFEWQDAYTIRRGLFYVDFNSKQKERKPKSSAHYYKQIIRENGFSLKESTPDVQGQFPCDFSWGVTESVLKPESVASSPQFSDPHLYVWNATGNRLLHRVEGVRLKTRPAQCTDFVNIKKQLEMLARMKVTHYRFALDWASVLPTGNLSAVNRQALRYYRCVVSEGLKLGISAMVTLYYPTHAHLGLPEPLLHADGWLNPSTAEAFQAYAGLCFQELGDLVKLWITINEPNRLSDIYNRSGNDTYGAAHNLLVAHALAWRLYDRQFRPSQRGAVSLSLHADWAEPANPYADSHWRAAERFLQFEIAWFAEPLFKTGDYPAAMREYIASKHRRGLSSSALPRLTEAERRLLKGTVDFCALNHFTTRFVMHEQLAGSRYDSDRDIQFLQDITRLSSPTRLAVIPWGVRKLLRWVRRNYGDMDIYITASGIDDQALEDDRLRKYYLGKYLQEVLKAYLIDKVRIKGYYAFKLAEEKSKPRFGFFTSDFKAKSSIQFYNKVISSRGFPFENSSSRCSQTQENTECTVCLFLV
- Procedure Text: competition with FGF19 (AlphaScreen)
Lab note — pIC50 values are minus log10 of concentrations in M.

Binder: PQPPDVGSSDPLSMVGPSQGASPSYAS [FGF21 183-209 203R-A]
Result Value: 9.55
//
Binder: PQPPDVGSSDALSMVGPSQGRSPSYAS [FGF21 183-209 193P-A]
Result Value: 8.26
//
Binder: PQPPDVGSSDPLSMVGPSQGRSPSYAS [FGF21 183-209]
Result Value: 9.28
//
Binder: AQPPDVGSSDPLSMVGPSQGRSPSYAS [FGF21 183-209 183P-A]
Result Value: 9.00
//
Binder: PQPPDAGSSDPLSMVGPSQGRSPSYAS [FGF21 183-209 188V-A]
Result Value: 8.28

Consider the additional binder presented here.
Task: Recorded pIC50 for PQPPDVGSSDPLSMVAPSQGRSPSYAS [FGF21 183-209 198G-A] , please?
Result: 8.59
